The reported numbers originate from the nanobody polyreactivity screen of Harvey et al. (2022).

- protocol: yeast display, Sf9 membrane polyspecificity reagent, FACS + sequencing; frameworks hold sequencing errors
recorded endpoint: polyreactivity (PSR sort gate)

Example results:
sequence_string=QVQLVESGGGLVQAGGSLRLSCAASGRTFIYYAMGWYRQAPGKERELVASITTGGRTYYADSVKGRFTISRDNAKNTVYLQMNSLKPEDTAGYYCAAVRRIRRPRYGYWGQGTQVTVSS recorded_endpoint="polyreactivity (PSR sort gate)" reported_measurement="high polyreactivity"
sequence_string=QVQLQEGGGLVQAGGSLRLSCAASGYISSRPAMGWYRQAPRKERAFVATIADGTSTYYADSVKGRFTISRDNAKNTVYLQMNSLKPEDTAVYYCAAAYNTEFYLSYWGQGTQVTVSS recorded_endpoint="polyreactivity (PSR sort gate)" reported_measurement="high polyreactivity"
sequence_string=QVQLVESGGGLVQAGGSLRLSCAASGRTFKPYALGWYRQAPGKERELDAAISTGGSTNYADSEKGRFTISRDNAKNSVYLQMNSLKPEDTAVYYCAADYFLYSYFLGLMDYWGQGTLVTVSS recorded_endpoint="polyreactivity (PSR sort gate)" reported_measurement="low polyreactivity"
sequence_string=QVQLVESGGGLVQAGGSLRLSCAASGFTITTYAMGWYRQAPGKERELVAVISVSGGRTYYADSVKGRFTISRDNAKNTVYLQMNSLKPEDTAVYYCAAEYYPGWEYGYWGQGTQVTVSS recorded_endpoint="polyreactivity (PSR sort gate)" reported_measurement="high polyreactivity"
sequence_string=QVQLVESGGGLVQAGGSLRLSCAASGRIYNGNAMGWYRQAPGKERELVAAITSDGSTYADSVKGRFTISRDNAKNTVYLHMNSLKPEATADYYCATDDPLAYGSFGPYQPYDYWGQGTQVTVSS recorded_endpoint="polyreactivity (PSR sort gate)" reported_measurement="low polyreactivity"

// polyreactivity (PSR sort gate) lookup, key: QVQLVESGGGLVQAGGSLRLSCAASGRTFGRYVMGWYRQAPGKERELVAAITSSSSSTYADSVKGRFTISRDNAKNTVHLEMNSLKPEDTAVYYCNKRFPSRHRPEYDYWGQGTQVTVSS high polyreactivity

Next sequence up: QVQLVESGGGLVQAGGSLRLSCAASGSNFNRYAMGWYRQAPGKERELVAAITSTGGTNYADSVKGRFTISLDNAKNSVYLQMNSLKPEDTAVYYCAKRWLRWRSNYWGQVTQVTVSS high polyreactivity

Try this sequence too: QVQLVESGGGLVQAGGSLRLSCAASGSTIYWYAMGWYRQAPGKERELVAAITDSGDDTYYADSVKGRFTISRDNAKKTVYLQMNSLKPVDTAVYYCAGEAWSVAPYEYWGQGTQVTVSS low polyreactivity

And QVQLVESGGGLVQAGGSLRLSCAASGSIFAYYALGWYRQAPGKERELVASIDWSGDLYVRDSVKGRFTISRDNAKNTVYFLMNSLKPEDTAVYYCAKDVSFQYGTGYDYWGQGNQVTVSS ? low polyreactivity

Record: QVQLVESGGGLVQAGGSLRLSCAASGSIFTPNVMGWYRHAPGKERELVAAISQSGGSTFYADSVKGRFTISRDNAKNTVYLQMNSLKPEDTAVYYCNVDDNSEYDYWGQGSQVTVSS low polyreactivity

What do we get for QVQLVESGGGLVQAGGSLRLSCAASGRNFEVYTMGWYRQAPGTERELVDAIDRSTGSTYYADSVKGRFTISRDNAKNTVYLQMNSLKPEDTAVYDCAARGTFLGTRPLGRFDYWGQGTQVTVSS ? low polyreactivity

----------
- protocol: yeast display, Sf9 membrane polyspecificity reagent, FACS + sequencing; frameworks hold sequencing errors
recorded endpoint: polyreactivity (PSR sort gate)

sequence_string=QVQLVESGGGLDQAGGSLRLSCAASGRIIYWYAMGWFRQAPGKERELVAAINNGGGTNYADSVKGRFTISRDNAKHTVYLQMNSLKPEDTAVYYCAADYVFYSRFFTEVYWGQGTQVTVSS reported_measurement="low polyreactivity"
sequence_string=QVQLVESGGGLVQAGGSLRLSCAASGYIFKYNTMGWYRQAPGKERELVASITWSGVRTYYADSVKGRFTISRDNAKNTVYLQMNSLKPEDTAVYYCNAAYRRSWDSDDYWGQGTQVTVSS reported_measurement="low polyreactivity"
sequence_string=QVQQLESAGGLVQAGGSLRLSCAASGTITVLYKMGWFRQAPGKEREFVASINYGTSTYYADSVKGRFSVSPDSAKHTVYLQMNSLNPEDTAVYYCAAAYRWQDVYRYWGLGTQVTVSS reported_measurement="low polyreactivity"
sequence_string=QVQLVESGGGLVQAGGSLRLSCAASGRTFYSNAMGWYRPAPGKERELGATISSGGSTNYADSVKGRFTISRDTAKNTVYLQINSVKPADTAVYYCDTRPDRINDYWGQGTQVTVSS reported_measurement="low polyreactivity"
sequence_string=QVQLVESGGGLVQAGGSLRLSCAASGRIFYSYAMGWYRQAPGKEREFVAVISSDGGSTYYADSVKGRFTISRDNAKNTVYLQMNSLKPEDTAVYYCNAEIDYDVYEYDYWGQGTQVTVSS reported_measurement="low polyreactivity"
sequence_string=QVQLVESGGGLVQAGGSLRLSCAASGRTLFGNAMGWYRQAPGKERELVAAISRRGGSTSYADSVKGRFTISRDNAKNTVYLQMNSLKPEDTAVYYCAAAQGKYTGTHYPYDYWGQGTQVTVSS reported_measurement="high polyreactivity"
sequence_string=QVQLVESGRGLVPAGGSLRLSCAASGSTFFKNAMGWYRQAPGNERELVAAITWSGDRTYADSVKGRFTISRDNAKNTVYLQMNSLKPEDTAVYYCNVDITGYEDDEWGQGTQVTVSS reported_measurement="low polyreactivity"
sequence_string=QVQLVESGGGLVQAGGSLRLSCAASGSTFYYYVMGWYRQAPGKERELVATITSGGSTNYADSVKGRFTISRDNAKNTVYLQMNSLKPEDTAVYYCAADWYLIIARSRPTLDYDYWGQGTQVTVSS reported_measurement="low polyreactivity"
sequence_string=KVQLVESGGGLVQAGGSLRLSCAASGSIISGNAMGWYRQAPGKERELVAAISRSGGRTYYADSVKGRFTISRDNAKNTVYLQMNSLKPEDTAVYFCAAGRSLRGDYWGQGTQVTVSS reported_measurement="high polyreactivity"
sequence_string=QVQLVESGGGLVQAGGSLRLSCAASGSIFYRNAMGWYRQAPGKERELVAAISWRGGSTYYADSVKGRFTISRDNAKNTVFLQMNSLKPEDTAVYYCAAAQRVNHVWYDYWGQGTQVTVSS reported_measurement="low polyreactivity"

Shift focus to the following entry.
For QVQLVESGGGLVQAGGSLRLSCAASGSNFHQYAMGWYRQAPGKERELVAGINWSGGSTYYADSVKGRFTISRDNAKNTVYLQMNSLKPEDTAVYYCAKRYQLARAAYTGGYWGQGTQVTVSS , what is its reported polyreactivity (PSR sort gate)? high polyreactivity

----------
- protocol: yeast display, Sf9 membrane polyspecificity reagent, FACS + sequencing; frameworks hold sequencing errors
recorded endpoint: polyreactivity (PSR sort gate)

sequence_string=QVQLVESGGGLVQAGGSLRLSCAASGFIFWSYAMGWYRQAPGKERELVAVITSGASTYYADSVKGRFTISRDNAKNTVYLQMNSLKPEDTAVYYSAAEYWVPAWKFGYEYWGQGTQVTVSS reported_measurement="high polyreactivity"
sequence_string=QVQLVESGGGLVQAGGSLRLSCAASGSTFPQNVMGWYRQAPGKVRELVAAITRSAGSTYYADSVKGRFTISRDNPKNTVYLQMNSLKPEDTAVYNCNTGRQRGSYYYDYWGQGTQVTVSS reported_measurement="high polyreactivity"
sequence_string=QVHLVESWGGLVQAGGSLRLSCAASGSTFGYNAMGWYRQAPGKERELVAAITSGGSTNYADSVKGRFTISRDNAKNTVYLQMNSLKPEDTAVYYCAKLAADRRSYYWGQGTQVTVSS reported_measurement="high polyreactivity"
sequence_string=QVQLVESGGGLVQAGGSLRLSCAASGSTFEYNAMGWYRQAPGKERELVASSTNYADSVKGRFTISRDNAKNTVYFQMNSLKPEDTAVYYCAREQGVNRNNDYWGQGTQVTVSS reported_measurement="low polyreactivity"

Now for another entry.
Requested field: polyreactivity (PSR sort gate). Item: QVQLVESGGGLVQAGGSLRLSCAASGRTFGIYAMGWYRQAPGKERELVADITIGGSTYYADSVKGRFTISRDNAKNTVYLQMNSLKPEDTAVYYCNADVVVQYYFTYYRVFTYDYWGQGTQVTVSS low polyreactivity

----------
- protocol: yeast display, Sf9 membrane polyspecificity reagent, FACS + sequencing; frameworks hold sequencing errors
recorded endpoint: polyreactivity (PSR sort gate)

Examples with answers:
sequence_string=QVQLVESGGGLVQAGGSLRLSCAASGFIFRYYAMGWYRQAPGKERELVAAISRTGGSTYYADSVKGRFTISRDNAKNTVYLQMNSLKPEDTAVYYCAADWWAWRAYYYWGQGTQVTVSS reported_measurement="high polyreactivity"
sequence_string=QVQLVESGGGLVQAGGSLRLSCAASGFIFGVYAMGWYRQAPGKERELVAAITSSGTSTYYADSVKGRFTISRDNAKNTVYLQMNSLKPEDTAVYYCNKSGYIYHRKLWTPYYYWGQGTQGTVSS reported_measurement="low polyreactivity"
sequence_string=QVQLVESGGGLVQAGGSLRLSCAGLRIYLPGYAKGWYIQAPGKERELVAVISGSGSGTYYADSVKGRFTISLDNAKNTVYLQMNSLKPEDTAVYYCAADAGSNEAYFRRMDYWGQGTQVTVSS reported_measurement="high polyreactivity"
sequence_string=QVQLVESGGGLVQAGGSLRLSCAASGSTFSDYAMGWYRQAPGKERELVAAISRRGGSTYYADSVKGRFTISRDNAKNTVYLQMNSLKPEDTAVYYCAKAAYPWTRMEYWGQGTQVTVSS reported_measurement="high polyreactivity"
sequence_string=QVQLVESGGGLVQAGGSLRLSCAASGRILTRNALGWYRQAPGKERELVAAISTSGGRTYYADSVKGRFTISRDNAKNTVYLEMNSLKPEDTAVYYCAAYSASYGGYDYWGQGTQVTVSS reported_measurement="high polyreactivity"
sequence_string=QVQLVESGGGLVQAGGSLRLSCAASGRITGINAMGWYRPAPGKERELVAAITWRGGRKYYADSVKGRFTISRDNAKNTVYLQMNSLKPEDTAVYYCAAELQGAYYFAYYYWGQGTQVNVSS reported_measurement="high polyreactivity"

# query: polyreactivity (PSR sort gate) of entry QVQLVESGGGLVQAGGSLRLSCAASGSIFKYNTMGWYREAPGKESELVAAINGGGSTYYADSVKGRFTISRDNAKNTVYVTMNCLNPEDTAVYYCAKVQRTRGWSLDYWGHGTQVTVSS high polyreactivity

Could you do the same for QVQLVESGGGLVQAGGSLRLSCAASGFTFATYAMGWYRQAPGKERELVAAISKSGGSTYYADSVKGRFTISRDNAKNTVYLQMNSLKPEDTAVYYCAKRRSVRYDYWGQGTQVTVSS , please? high polyreactivity

Further, for QVQLVESGGGLVQAGGSLRLSCAASGRTFARYAMGWYRQAPGKERELVAAITRRGGSTYYADSVKGRFTISRDNAQNTVYLQMNSLKPEDTAVYYCAVPWYTRESGAYDYWGQGTQVTVSS ? high polyreactivity
